FYI, the data here is from ChEMBL document CHEMBL4219198.

Property name: pIC50
# pIC50: negative log10 of molar concentration; output just the value

Enter recorded pIC50 with Falcipain 2 (Plasmodium falciparum) for CN1CCN(Cc2ccc(-c3cncc(C(=O)N[C@@H](Cc4cccnc4)C(=O)NC4(C#N)CC4)c3)cc2)CC1 here.
Sequence (Q9N6S8 whole entry): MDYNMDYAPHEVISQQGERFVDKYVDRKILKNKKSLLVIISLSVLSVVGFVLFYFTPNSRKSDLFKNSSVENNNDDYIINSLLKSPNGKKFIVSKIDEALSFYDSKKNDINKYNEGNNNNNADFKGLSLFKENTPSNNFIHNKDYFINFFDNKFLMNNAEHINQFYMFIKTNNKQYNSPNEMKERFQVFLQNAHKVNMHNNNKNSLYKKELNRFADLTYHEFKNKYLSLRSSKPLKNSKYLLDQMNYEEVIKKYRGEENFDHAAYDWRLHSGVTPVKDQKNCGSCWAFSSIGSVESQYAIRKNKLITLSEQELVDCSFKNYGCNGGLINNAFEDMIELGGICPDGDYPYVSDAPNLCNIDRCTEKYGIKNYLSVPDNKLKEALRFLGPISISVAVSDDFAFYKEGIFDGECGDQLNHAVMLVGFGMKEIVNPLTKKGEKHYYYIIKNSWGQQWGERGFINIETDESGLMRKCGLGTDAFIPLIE
8.62

Give pIC50 for CC(C)C[C@H](NC(=O)c1ccc(CN2CCN(C)CC2)cc1)C(=O)NC1(C#N)CCS(=O)(=O)CC1 tested on Falcipain 2 (Plasmodium falciparum).
7.24

Report value: pIC50, system: Falcipain 2 (Plasmodium falciparum), molecule: CN1CCN(Cc2ccc(C(=O)N[C@@H](Cc3cccnc3)C(=O)NC3(C#N)CCS(=O)(=O)CC3)s2)CC1
7.26

Fetch value of pIC50 on Falcipain 2 (Plasmodium falciparum) for CC(C)CN(NC(=O)c1ccc(CN2CCN(C)CC2)cc1)c1nc(C#N)ncc1Br .
9.22

Give Falcipain 2 (Plasmodium falciparum) pIC50 for the following molecule: CC(C)C[C@H](NC(=O)c1ccc(-c2ccccc2)cc1)C(=O)NC1(C#N)CCS(=O)(=O)CC1
8.10

Consider the molecule N#CC1(NC(=O)[C@H](Cc2cccnc2)NC(=O)c2cccc(-c3ncc[nH]3)c2)CC1 tested on Falcipain 2 (Plasmodium falciparum); state its pIC50.
8.57

Report value: pIC50, system: Falcipain 2 (Plasmodium falciparum), molecule: CC(C)C[C@H](NC(=O)c1ccc(-c2ccccc2)cc1)C(=O)NC1(C#N)CC1
7.57

Provide pIC50, tested on Falcipain 2 (Plasmodium falciparum), for CS(=O)(=O)c1cccc(-c2cccc(C(=O)N[C@@H](Cc3cccnc3)C(=O)NC3(C#N)CC3)c2)c1 .
8.09

---

Property name: log10 of IC50 (log10 of the value in nM)
Each number you see is log10 of IC50, and the unit inside the log is nM.

Identify measured log10 of IC50 obtained with Cathepsin S (Homo sapiens, UniProt P25774) for N#CC1(NC(=O)[C@H](Cc2nc3ccccc3s2)NC(=O)c2ccc(-c3ccccc3)cc2)CC1 .
Sequence (P25774 whole entry): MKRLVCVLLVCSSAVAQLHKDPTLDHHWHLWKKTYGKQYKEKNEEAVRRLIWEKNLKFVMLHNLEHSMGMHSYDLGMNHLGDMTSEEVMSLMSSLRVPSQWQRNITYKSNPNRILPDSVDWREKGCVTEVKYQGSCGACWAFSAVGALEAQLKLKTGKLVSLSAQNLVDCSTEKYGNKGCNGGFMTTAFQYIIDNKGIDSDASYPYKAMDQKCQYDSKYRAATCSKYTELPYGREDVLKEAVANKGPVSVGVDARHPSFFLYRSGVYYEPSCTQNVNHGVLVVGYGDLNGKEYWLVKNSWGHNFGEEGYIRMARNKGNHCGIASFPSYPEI
1.26

// fetch log10 of IC50 for CC(C)C[C@H](NC(=O)c1ccc(-c2ccccc2)cc1)C(=O)NC1(C#N)CCS(=O)(=O)CC1 ; system: Cathepsin S (Homo sapiens, UniProt P25774)
0.04

Quote Cathepsin S (Homo sapiens, UniProt P25774) log10 of IC50 for entry N#CC1(NC(=O)[C@H](Cc2ccncc2)NC(=O)c2ccc(-c3ccccc3)cc2)CC1 .
2.85

Answer briefly: log10 of IC50 recorded on Cathepsin S (Homo sapiens, UniProt P25774) for COc1ccc(CC(NC(=O)c2ccc(-c3ccccc3)cc2)C(=O)NC2(C#N)CC2)cn1 (configuration not stated)
2.29

State measured log10 of IC50 of the molecule N#CC1(NC(=O)[C@H](Cc2ccc(O[C@@H]3CCNC3)cc2)NC(=O)c2ccc(-c3ccccc3)cc2)CC1 with Cathepsin S (Homo sapiens, UniProt P25774).
3.55

Fill in: log10 of IC50 on Cathepsin S (Homo sapiens, UniProt P25774), entry N#CC1(NC(=O)[C@H](Cc2ccccc2)NC(=O)c2ccc(-c3ccccc3)cc2)CC1
2.45

---

Record form. Attribute: Ratio IC50. Fill in for each entry.
# Experimental details: Selectivity ratio of IC50 for human cathepsin S to IC50 for Plasmodium falciparum falcipain-2
Hey, just send me the number, nothing else.

Tell us which Ratio IC50 value is on record for CN1CCN(Cc2ccc(C(=O)N[C@@H](Cc3cccnc3)C(=O)NC3(C#N)CC3)s2)CC1
32

Tell us which Ratio IC50 value is on record for CN1CCCC(c2cccc(C(=O)N[C@@H](Cc3cccnc3)C(=O)NC3(C#N)CC3)c2)C1 (some centres undefined)
202

Output Ratio IC50 of N#CC1(NC(=O)[C@H](Cc2cccnc2)NC(=O)c2cccc(-c3ncc[nH]3)c2)CC1
76

Quote Ratio IC50 reported for CN1CCN(Cc2ccc(-c3cncc(C(=O)N[C@@H](Cc4cccnc4)C(=O)NC4(C#N)CC4)c3)cc2)CC1 please.
552
